Source listed as ChEMBL document CHEMBL5143595.

# Activity listing for each entry below
test system: HCT-15; test: Antiproliferative activity against human HCT-15 cells assessed as inhibition of cell growth at 10 uM incubated for 48 hrs by SRB assay relative to control; type: functional; design: scale not given: the % may be the effect or the level left
Enter the number, and then the unit.

* CCCCCCCNC(=O)CN1CCCCN(CC(=O)NC(C)(C)C)C(=O)c2cccc(c2)-c2cccc(c2)C1=O | 77.9%
* CCCCCCCCCCCNC(=O)CN1CCCCN(CC(=O)NC(C)(C)C)C(=O)c2cccc(c2)-c2cccc(c2)C1=O | 51%
* CCCCCCCCCCCCNC(=O)C(c1ccoc1)N1CCCCN(CC(=O)NC(C)(C)C)C(=O)c2cccc(c2)-c2cccc(c2)C1=O (racemic) | 34.3%
* CCCCCCCCCCCCNC(=O)C(c1ccc(C(F)(F)F)cc1)N1CCCCN(CC(=O)NC(C)(C)C)C(=O)c2cccc(c2)-c2cccc(c2)C1=O (racemic) | 30.3%
* CCCCCCCCCCNC(=O)CN1CCCCN(CC(=O)NC(C)(C)C)C(=O)c2cccc(c2)-c2ccc(O)c(c2)C1=O | 28.6%

Next compound, please.
What value of Activity has been reported for the following compound? CCCCCCCCCCNC(=O)C(c1ccco1)N1CCCCN(CC(=O)NC(C)(C)C)C(=O)c2cccc(c2)-c2cccc(c2)C1=O (racemic)
26%
